Data provenance is BindingDB's records for doi:10.1021/jm000022w.

- methodSummary: Inhibition of platelet aggregation
Starred links: 1 amine or outer side, 2 acyl side, 3 side chain; linkers in the order of their positions; H or OH if unused. Positions of bridges follow the written chain, without caps; N, C: chain ends. Non-standard residues stand in square brackets, D forms with d. Residues, ends and D or L forms follow the SMILES beside them. Cys(O)(CH2CO) = O=C([C@H](C[S+]([O-])CC(=O)[*:3])N[*:1])[*:2]
reportedProperty: IC50 (nM)

compound	reportedProperty	outputUnit	number
CN(CC(=O)c1ccc(OCC(=O)O)c(OCC(=O)O)c1)C(=O)c1ccc(C(=N)N)cc1	IC50	nM	70
CC(C)[C@H](NC(=O)[C@H](CC(=O)O)NC(=O)CNC(=O)Cc1ccc(C(=N)N)cc1)C(=O)O	IC50	nM	300
[H]/N=C(/N)c1ccc(C(=O)N[C@@H](Cc2ccc(O)cc2)C(=O)N2CCC(OCC(=O)O)CC2)cc1	IC50	nM	30
CC(C)[C@H](NC(=O)[C@H](CC(=O)O)NC(=O)CCNC(=O)c1ccc(C(=N)N)cc1)C(=O)O	IC50	nM	30
N=C(N)c1ccc(C(=O)Nc2cccc(C(=O)NCCC(=O)O)c2)cc1	IC50	nM	200
N=C(N)NCCC[C@@H]1NC(=O)[C@@H](Cc2ccc(O)cc2)NC(=O)C[S+]([O-])C[C@@H](C(=O)O)NC(=O)[C@H](CC(=O)O)NC(=O)CNC1=O (stereo partly specified) ([dY]RGD[Cys(O)(CH2CO)]-OH; lactam N-5)	IC50	nM	150

====

- methodSummary: In vitro inhibition of gel filtered platelet aggregation induced by ADP.
Readings of IC50 for the listed molecules
reportedProperty: IC50 (µM)

molecule	number
N=C(N)c1ccc(C(=O)Nc2ccc3c(c2)CCC(CC(=O)O)C3=O)cc1 (centres undefined)	0.06
CCCCS(=O)(=O)NC(CC#Cc1ccc2nc(C)n(CCC3CCNCC3)c(=O)c2c1)C(=O)O (centres undefined)	0.043
O=C(NC[C@H](NS(=O)(=O)c1ccccc1)C(=O)O)c1cc2cc(OCC3CCNCC3)ccc2[nH]1	0.013
Cc1ccc(S(=O)(=O)N[C@@H](CCC(=O)N2CCC3(CC2)C(=O)N(c2ccc(C(=N)N)cc2)C(=O)N3C)C(=O)O)cc1	0.059
C#C[C@H](CC(=O)O)NC(=O)CN1CCc2ccc(N3CCNCC3)cc2C1=O	0.012
O=C(NC[C@H](NS(=O)(=O)c1ccccc1)C(=O)O)c1cc2c(s1)CCN(CCC1CCNCC1)C2=O	0.008
N=C(N)c1ccc(C(=O)Nc2ccc3c(c2)CCC(CC(=O)O)O3)cc1 (centres undefined)	0.19
CCCCS(=O)(=O)N[C@@H](CNC(=O)c1cc2n(n1)CCN(CCC1CCNCC1)C2=O)C(=O)O	0.009
Cc1noc(C)c1S(=O)(=O)N[C@@H](CCC(=O)N1CCC2(CC1)CCN(c1ccncc1)CC2)C(=O)O	0.021
Cc1ccc(S(=O)(=O)N[C@@H](CNC(=O)c2ccc3oc(-c4ccc(C(=N)N)cc4)nc3c2)C(=O)O)cc1	0.01
Cc1noc(C)c1S(=O)(=O)N[C@@H](CNC(=O)C1CCC2(CC1)CCN(c1ccncc1)CC2)C(=O)O	0.044
CCCCS(=O)(=O)NC(CC#Cc1ccc2[nH]c(=O)n(CCC3CCNCC3)c(=O)c2c1)C(=O)O (centres undefined)	0.037
N=C(c1ccc(C(=O)Nc2ccc3c(c2)C[C@@H](CC(=O)O)CO3)cc1)N1CCOCC1	0.035
[H]/N=C(/N)c1ccc(C2=NO[C@@H](CC(=O)NC[C@H](NC(=O)OCCCC)C(=O)O)C2)cc1	0.06
